# self-aminoacylation values compiled below
Tested on: biotinyl-Phe-oxazolone
Experiment: self-aminoacylation, catalytic enhancement (BFO) (fold over background); higher = more active; k-Seq, kA / k0A0; sequences stand for … in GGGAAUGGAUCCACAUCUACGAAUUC…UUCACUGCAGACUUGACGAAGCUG
Variants at the floor of the assay were thinned out.
Write the value as a bare number.

The examples below pair each entry with its known result.
AUUACCCUGUUCAUCGUGUGA [Fam2.1 aminoacylation ribozyme variant]	43.7
CAAGACUUCAAGCAAUCGGUC [Fam1B.1 aminoacylation ribozyme variant]	15.3
AUGUUUGCUAAUAGUCGAAAG [Fam3.1 aminoacylation ribozyme variant]	8.7

Next up:
# query: self-aminoacylation | item CUACCUCAAAAAAUCGGUCUG [Fam1A.1 aminoacylation ribozyme variant] | system: biotinyl-Phe-oxazolone
1.28

---

Test system: biotinyl-Ile-oxazolone
Assay: self-aminoacylation, catalytic enhancement (BIO) (fold over background); higher = more active; k-Seq, kA / k0A0; sequences stand for … in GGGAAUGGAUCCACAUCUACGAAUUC…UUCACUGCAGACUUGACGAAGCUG
This sample holds only a part of the variants without activity.
# self-aminoacylation values compiled below
Write the value as a bare number.

AUCCACCUAGGUCAUCAGGUG [Fam2.2 aminoacylation ribozyme variant]	1.51
AAGUUUGCUAGUAGUCACAAG [Fam3.1 aminoacylation ribozyme variant]	1.05
AAGAUUGCUAAUGGUCGCAAG [Fam3.1 aminoacylation ribozyme variant]	1.21
AAUACCCUGGUCAUUGAGUGA [Fam2.1 aminoacylation ribozyme variant]	2.98
CCACACCUCAAGCAAUCGCUC [Fam1B.1 aminoacylation ribozyme variant]	2.12
AAGUUUGCUAAUAGUCUCGAG [Fam3.1 aminoacylation ribozyme variant]	1.06
AUUACCUUGGUCAUCAAGUGA [Fam2.1 aminoacylation ribozyme variant]	1.97
CUACUUCAAAUAAACGGUCUG [Fam1A.1 aminoacylation ribozyme variant]	0.719

Next up:
Fill in the blank: the reported self-aminoacylation of AAUACCCCGGUCAUCGAGUGA [Fam2.1 aminoacylation ribozyme variant] is ____.
3.15

---

Test system: biotinyl-Phe-oxazolone
Test: self-aminoacylation, catalytic enhancement (BFO) (fold over background); higher = more active; k-Seq, kA / k0A0; sequences stand for … in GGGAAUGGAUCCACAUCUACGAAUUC…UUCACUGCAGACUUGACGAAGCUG
Variants at the floor of the assay were thinned out.
Please note: Y applies when self-aminoacylation is 1 or greater, and N applies otherwise.

AUUACCCUGGUCACCGAAUGA [Fam2.1 aminoacylation ribozyme variant]	N

Now, please, on to the next sequence.
Identify whether the reported self-aminoacylation of the following sequence is 1 or greater: CCACACAUCAAGCAAUGGGUC [Fam1B.1 aminoacylation ribozyme variant]
Y

---

# self-aminoacylation values compiled below
Tested on: biotinyl-Val-oxazolone
Assay: self-aminoacylation, catalytic enhancement (BVO) (fold over background); higher = more active; k-Seq, kA / k0A0; sequences stand for … in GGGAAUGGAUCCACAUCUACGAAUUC…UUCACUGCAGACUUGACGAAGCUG
This sample holds only a part of the variants without activity.

The examples below pair each entry with its known result.
AUUACACUGGUCAUCGAGUGA [Fam2.1 aminoacylation ribozyme variant]	3.09
AAGUUUGCUUAUGGUCGCAAG [Fam3.1 aminoacylation ribozyme variant]	0.727
AUUAACCUGGUCAUCGAGUGA [Fam2.1 aminoacylation ribozyme variant]	4.02
AUUCGCCUAGGUCAUCGGAUG [Fam2.2 aminoacylation ribozyme variant]	1.07
GAGUUUGCCAAUAGUCGCAAG [Fam3.1 aminoacylation ribozyme variant]	1.48

# query: self-aminoacylation | item AUUACCCCGGUCAUGGAGUGA [Fam2.1 aminoacylation ribozyme variant] | system: biotinyl-Val-oxazolone
3.07

# query: self-aminoacylation | item CUACACUUCAUGCAAUCGGUC [Fam1B.1 aminoacylation ribozyme variant] | system: biotinyl-Val-oxazolone
0.693

# query: self-aminoacylation | item AUUACCAAGGUCAUCGAGUGA [Fam2.1 aminoacylation ribozyme variant] | system: biotinyl-Val-oxazolone
3.96

# query: self-aminoacylation | item CCCCACUUCAAGCAAUCGUUC [Fam1B.1 aminoacylation ribozyme variant] | system: biotinyl-Val-oxazolone
0.849
